# EXPERIMENTAL DETAILS: protein stability index of a GFP-peptide fusion (yeast GPS) (PSI 1-4); higher = more stable; sorted into four equal gates, so the index is relative within each strain
# CONDITION LABEL: doa10∆
// classify(record): look up protein stability index in ranges L (below 2), M (2 to below 3), H (3 or more)

Completed entries (count: 5):
- BIOPOLYMER SEQUENCE: "FEGTPPFSLTYVRTEET [YMR129W/POM152]"
  CAT: "M"
- BIOPOLYMER SEQUENCE: "RVGVKLKFNSTEYRGTL [SMX3]"
  CAT: "H"
- BIOPOLYMER SEQUENCE: "TISILAAPSGNYKQLTL [RRP43]"
  CAT: "L"
- BIOPOLYMER SEQUENCE: "LEKLIFDMTNHYNDSQQ [SRB8]"
  CAT: "M"
- BIOPOLYMER SEQUENCE: "KSQNTALPSTHKVTQKK [SIR4]"
  CAT: "M"

Tag the class for LSVDDIRGAVGNSEAIP [RTT102]
H

For SNELIEHFSHFGHIMED [YDL088C/ASM4] then?
H

Same question for LLNDECTESTRENALYD [SNF2] please.
H

And the next one, PLSLTHRDKNKMDMICR [DIS3] ?
H

Param item: KKAAEEAGVTDVKVSIS [FAS2]
L

Another: LSTLRMEADPSLHPLFE [RPN9]
M
